Source: patent US8969336B2

target-or-test-system: EML4-ALK fusion protein v1 (Homo sapiens (Human))
Sequence (Q9UM73 other isoform, or with tags, fused parts or gaps): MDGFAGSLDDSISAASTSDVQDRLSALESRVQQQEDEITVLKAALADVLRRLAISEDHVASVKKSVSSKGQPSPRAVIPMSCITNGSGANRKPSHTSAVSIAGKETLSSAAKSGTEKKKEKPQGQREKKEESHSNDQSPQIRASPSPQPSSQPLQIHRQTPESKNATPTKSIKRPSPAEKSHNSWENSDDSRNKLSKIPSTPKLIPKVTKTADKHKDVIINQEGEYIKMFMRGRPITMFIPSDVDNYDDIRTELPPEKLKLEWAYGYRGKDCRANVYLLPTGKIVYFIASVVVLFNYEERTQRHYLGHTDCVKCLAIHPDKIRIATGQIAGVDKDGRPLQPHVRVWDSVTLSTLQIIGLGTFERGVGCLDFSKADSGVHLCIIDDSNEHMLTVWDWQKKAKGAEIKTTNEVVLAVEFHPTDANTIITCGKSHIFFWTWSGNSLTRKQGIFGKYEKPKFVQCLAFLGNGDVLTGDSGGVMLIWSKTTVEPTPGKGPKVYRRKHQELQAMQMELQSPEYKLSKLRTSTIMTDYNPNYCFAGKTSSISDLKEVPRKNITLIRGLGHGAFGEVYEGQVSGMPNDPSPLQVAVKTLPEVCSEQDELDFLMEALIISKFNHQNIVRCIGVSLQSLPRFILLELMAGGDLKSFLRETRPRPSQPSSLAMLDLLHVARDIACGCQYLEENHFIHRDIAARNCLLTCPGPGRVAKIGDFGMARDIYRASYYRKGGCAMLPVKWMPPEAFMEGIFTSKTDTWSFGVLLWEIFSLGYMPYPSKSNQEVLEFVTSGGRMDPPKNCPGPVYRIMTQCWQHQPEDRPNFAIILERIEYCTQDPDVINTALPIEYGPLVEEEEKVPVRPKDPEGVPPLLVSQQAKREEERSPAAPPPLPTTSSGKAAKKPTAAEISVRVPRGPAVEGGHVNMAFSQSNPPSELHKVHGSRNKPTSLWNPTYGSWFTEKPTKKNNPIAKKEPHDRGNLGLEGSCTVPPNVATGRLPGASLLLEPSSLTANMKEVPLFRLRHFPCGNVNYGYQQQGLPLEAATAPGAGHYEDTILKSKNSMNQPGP
assay-name: Inhibitory activity against the kinase activity of EML4-ALK fusion protein (HTRF KinEASE-TK)
test-context: ATP 100 μM, reaction 1 hour
Source text: A recombinant retrovirus was created from expression plasmid FLAG-EML4-ALKv1/pMX-iresCD8 in which cDNA for EML4-ALK fusion protein v1 was integrated, and injected into mouse lymphoid cell line BA/F3 cells. […]
Give pIC50 for every item shown.
Please keep in mind that pIC50 is minus log10 of the molar concentration; only the number is needed.

pIC50 in this record for `CCc1nc(C(N)=O)c(Nc2ccc(N3CCN(C)CC3)c(OC)c2)nc1N[C@H]1CC[C@H](O)CC1` : 9.48

Per the record, `CC(C)c1nc(C(N)=O)c(Nc2ccc(N3CCC(N4CCN(C)CC4)CC3)c(C(F)(F)F)c2)nc1N[C@H]1CC[C@H](O)CC1` has pIC50 of 9.77

Short answer for `CCc1nc(C(N)=O)c(Nc2ccc(N3CCN(C)CC3)c(C(F)(F)F)c2)nc1N[C@H]1CC[C@H](O)CC1` : pIC50 was 9.11

For `CCc1nc(C(N)=O)c(Nc2ccc(N3CCC(N4CCN(C)CC4)CC3)c(C)c2)nc1NC1CCOCC1` the compound record lists pIC50 as 8.82

Notebook: `CCc1nc(C(N)=O)c(Nc2ccc(N3CCN(C4CCN(C)CC4)CC3)c(C)c2)nc1NC1CCOCC1` , pIC50 read as 8.66

pIC50 reading for `CCc1nc(C(N)=O)c(Nc2ccc(N3CCN(C)CC3)c(C)c2)nc1N[C@H]1CC[C@@](C)(O)CC1` : 9.66

Kindly note the recorded pIC50 for CCc1nc(C(N)=O)c(Nc2ccc(N3CCC(N4CCN(C)CC4)CC3)c(C)c2)nc1NC1CCC(O)(CC)CC1 (stereo not shown) [Example 490] , which is 8.51

----------
recorded-endpoint: IC50 (nM)
Please reply with the bare figure in nM and do not write the unit itself.

GET /values?item= `CCc1nc(C(N)=O)c(Nc2ccc(N3CCC(N4CCN(C)CC4)CC3)c(OC)c2)nc1NC1CCOCC1` &system= ROS protein (Homo sapiens (Human)) returns IC50: 1.9

----------
target-or-test-system: UniProtKB P07949
Sequence (P07949 724-1016): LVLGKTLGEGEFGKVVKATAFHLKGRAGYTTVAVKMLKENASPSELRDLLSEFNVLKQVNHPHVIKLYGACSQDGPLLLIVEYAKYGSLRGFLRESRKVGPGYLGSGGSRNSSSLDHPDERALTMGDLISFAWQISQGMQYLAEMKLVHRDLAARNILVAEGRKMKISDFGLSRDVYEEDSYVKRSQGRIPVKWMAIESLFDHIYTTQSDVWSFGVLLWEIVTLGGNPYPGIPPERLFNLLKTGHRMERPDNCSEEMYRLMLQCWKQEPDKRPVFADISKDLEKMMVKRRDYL
recorded-endpoint: IC50
Please report the result as a number followed by the unit.

CCc1nc(C(N)=O)c(Nc2ccc(N3CCC(N4CCN(C)CC4)CC3)c(OC)c2)nc1NC1CCOCC1 [Example 577] tested on UniProtKB P07949 gave IC50: 3.4 nM
